Tested on: antibodies in sera from SARS patients (sera 1a, 1b, 2, 6, 37, 62, London, SARS-yellow, SARS-green)
Type: binding, human
measured.property: Binding of serum 1b to linear peptides of protein N of SARS-CoV Urbani

1. SAPRITFGGPTDSTD | 0.2
2. APSASAFFGMSRIGM | 0.1
3. RRVRGGDGKMKELSP | 0.2
4. DSTDNNQNGGRNGAR | 0.1
5. PLPQRQKKQPTVTLL | 0.1
6. KELSPRWYFYYLGTG | 0.1
7. LPAADMDDFSRQLQN | 0.2
8. RPKQRRPQGLPNNTA | 0.1
9. ELRFPRGQGVPINTN | 0.1
10. APRITFGGPTDSTDN | 0.2
11. KDKKKKTDEAQPLPQ | 0.1
12. QIGYYRRATRRVRGG | 0.1
13. KDNVILLNKHIDAYK | 0.2
14. PTEPKKDKKKKTDEA | 0.1
15. KDHIGTRNPNNNAAT | 0.2
16. PNNNAATVLQLPQGT | 0.1
17. GDGKMKELSPRWYFY | 0.1
18. PTVTLLPAADMDDFS | 0.2
19. LRFPRGQGVPINTNS | 0.1
20. TASWFTALTQHGKEE | 0.1
21. RSAPRITFGGPTDST | 0.1
22. NTASWFTALTQHGKE | 0.1
23. NKHIDAYKTFPPTEP | 0.1

###

System: control sera (pooled serum of ten healthy LUMC hospital workers; commercial negative donor pooled serum from the Dutch bloodbank)
Assay type: binding, human
Documented Binding of Control serum Blood-bank to linear peptides across a set of sequences
measured.property: Binding of Control serum Blood-bank to linear peptides

1. SSLTSLLKTHRMCKY | 0.8
2. ESKVSGKGQQQQGQT | 0.7
3. FGGPTDSTDNNQNGG | 0.6
4. HITVSQIQLSLLKVT | 0.6
5. QQGQTVTKKSAAEAS | 0.8

###

Tested on: rabbit serum obtained by immunizing a rabbit with the SARS-CoV strain Frankfurt 1
Assay type: binding
Set-up: unit not given here
measured.property: Binding of a rabbit serum to linear peptides

1. PNVQIHTIDGSSGVA | 0.1
2. LALYKGFQFICNLLL | 0.2
3. IGTQVLKTMSLYMAI | 0.1
4. GTHITMTTVYHITVS | 2.1
5. VNVSLVKPTVYVYSR | 0.4
6. RIIMRCWLCWKCKSK | 0.1
7. KTHRMCKYTQSTALQ | 0.3
8. TQVLKTMSLYMAISP | 0.1
9. HATATIPLQASLPFG | 0.1
10. CNIVNVSLVKPTVYV | 0.1
11. DLFMRFFTLGSITAQ | 0.1
12. SLSLHKLLQTLVLKM | 0.1
13. VVTEGDGISTPKLKE | 0.1
14. LFMRFFTLGSITAQP | 0.5
15. VAAGMEAQFLYLYAL | 0.1
16. RMCKYTQSTALQELL | 0.4
17. SLLKTHRMCKYTQST | 0.3
18. CCNIVNVSLVKPTVY | 0.6
19. RVKNLNSSEGVPDLL | 0.8
20. QIGGYSEDRHSGVKD | 0.1
21. LLACLCKHKKVSTNL | 0.4
22. ATFFIFNKLVKDPPN | 0.1
23. KDYVVVHGYFTEVYY | 0.1
24. CKSKNPLLYDANYFV | 0.1
25. ANYFVCWHTHNYDYC | 0.1
26. WIQFMMSRRRLLACL | 0.5
27. MAISPKFTTSLSLHK | 0.3
28. EDRHSGVKDYVVVHG | 0.1
29. MRFFTLGSITAQPVK | 0.4
30. KLLQTLVLKMLHSSS | 0.2
31. VAFLAVFQSATKIIA | 0.2
32. TPKLKEDYQIGGYSE | 0.1
33. IFNKLVKDPPNVQIH | 0.1
34. QASLPFGWLVIGVAF | 0.3
35. KYTQSTALQELLIQQ | 0.4
36. QSTALQELLIQQWIQ | 0.2
37. LFVTIYSHLLLVAAG | 0.1
38. NATFFIFNKLVKDPP | 0.1
39. FLAVFQSATKIIALN | 0.6
40. VYSRVKNLNSSEGVP | 0.7
41. KNPLLYDANYFVCWH | 0.1
42. GVANPAMDPIYDEPT | 0.1
43. IIMRCWLCWKCKSKN | 0.2
44. VYVYSRVKNLNSSEG | 0.3
45. FTEVYYQLESTQITT | 0.1
46. CKYTQSTALQELLIQ | 0.2
47. FNKLVKDPPNVQIHT | 0.1
48. DPPNVQIHTIDGSSG | 0.1
49. LVIGVAFLAVFQSAT | 0.3
50. YCCNIVNVSLVKPTV | 0.7
51. TLFAGTHITMTTVYH | 0.7
52. YALIYFLQCINACRI | 0.1
53. LESTQITTDTGIENA | 0.1
54. CNLLLLFVTIYSHLL | 0.1
55. LLKTHRMCKYTQSTA | 0.5

###

Test system: antibodies in sera from SARS patients (sera 1a, 1b, 2, 6, 37, 62, London, SARS-yellow, SARS-green)
Assay type: binding, human
Set-up: unit not given here
measured.property: Binding of serum 2 to looped/cyclic peptides of protein N of SARS-CoV Urbani

1) GNSRNSTPGSSRGNS | 0.4
2) GFYAEGSRGGSQASS | 0.4
3) GIVWVATEGALNTPK | 0.4
4) NTPKDHIGTRNPNNN | 0.4
5) NSGPDDQIGYYRRAT | 0.5
6) GALNTPKDHIGTRNP | 0.5
7) ALALLLLDRLNQLES | 0.4
8) YKTFPPTEPKKDKKK | 0.1
9) QFAPSASAFFGMSRI | 0.4
10) QPTVTLLPAADMDDF | 0.2
11) VRGGDGKMKELSPRW | 0.5
12) TKQYNVTQAFGRRGP | 0.5
13) STPGSSRGNSPARMA | 0.4
14) KTFPPTEPKKDKKKK | 0.2
15) GLPNNTASWFTALTQ | 0.4
16) NQNGGRNGARPKQRR | 0.2
17) LRFPRGQGVPINTNS | 0.4
18) DAYKTFPPTEPKKDK | 0.2
19) RSAPRITFGGPTDST | 0.3
20) STDNNQNGGRNGARP | 0.3
21) AFFGMSRIGMEVTPS | 0.4
22) ELSPRWYFYYLGTGP | 0.4
23) DNGPQSNQRSAPRIT | 0.1
24) KSAAEASKKPRQKRT | 0.2
25) SKKPRQKRTATKQYN | 0.4
26) QIGYYRRATRRVRGG | 0.4
27) HIGTRNPNNNAATVL | 0.9

###

Tested on: rabbit serum obtained by immunizing a rabbit with the SARS-CoV strain Frankfurt 1
Format: binding
Design: unit not given here
The entries below come with measured Binding of a rabbit serum to looped peptides values attached.
measured.property: Binding of a rabbit serum to looped peptides

1. CLCKHKKVSTNLCTH | 0.4
2. FVTIYSHLLLVAAGM | 0.5
3. IGTQVLKTMSLYMAI | 0.4
4. TDTIVVTEGDGISTP | 0.3
5. LAVFQSATKIIALNK | 0.7
6. LPFGWLVIGVAFLAV | 0.5
7. DGSSGVANPAMDPIY | 0.6
8. PNVQIHTIDGSSGVA | 0.4

###

# key: entry, value: Binding of Control Serum Blood-Bank to Looped peptides
System: control sera (pooled serum of ten healthy LUMC hospital workers; commercial negative donor pooled serum from the Dutch bloodbank)
Type: binding, human
measured.property: Binding of Control Serum Blood-Bank to Looped peptides

1) STALQELLIQQWIQF | 0.6
2) YYRRATRRVRGGDGK | 0.3
3) YSEDRHSGVKDYVVV | 0.7
4) GVANPAMDPIYDEPT | 0.5
5) VYVYSRVKNLNSSEG | 0.8
6) MSRRRLLACLCKHKK | 0.3
7) ESKVSGKGQQQQGQT | 1.1
8) VTDTIVVTEGDGIST | 0.4
9) PKQRRPQGLPNNTAS | 0.8
10) AAFRDVLVVLNKRTN | 0.7
11) MDPIYDEPTTTTSVP | 0.3
12) DHIGTRNPNNNAATV | 0.9
13) HQNSKKTTKLVVILR | 0.6
14) QRRPQGLPNNTASWF | 0.8

###

Items are presented alongside their recorded Binding of serum 37 to looped/cyclic peptides of protein N of SARS-CoV Urbani.
Tested on: antibodies in sera from SARS patients (sera 1a, 1b, 2, 6, 37, 62, London, SARS-yellow, SARS-green)
Assay type: binding, human
Design: unit not given here
measured.property: Binding of serum 37 to looped/cyclic peptides of protein N of SARS-CoV Urbani

1. SRGNSPARMASGGGE | 0.4
2. ASKKPRQKRTATKQY | 0.5
3. TASWFTALTQHGKEE | 0.4
4. STDNNQNGGRNGARP | 0.5
5. LSPRWYFYYLGTGPE | 0.8
6. TRNPNNNAATVLQLP | 0.6
7. TQAFGRRGPEQTQGN | 0.5
8. GYYRRATRRVRGGDG | 0.5
9. PKQRRPQGLPNNTAS | 0.8
10. FYAEGSRGGSQASSR | 0.6
11. GQGVPINTNSGPDDQ | 0.4
12. TVTLLPAADMDDFSR | 0.4
